Item-by-item account of pEC50
Test system: M-07e cells
Test: M-07e cellular assay (SCF-mediated cell proliferation)
Assay type: cell-based
Details: Homo sapiens, 72 hours, CellTiter Glo
pEC50: −log10 of the molar value.
observable: pEC50

1. Cc1sc(-c2noc([C@H]3C[C@@H]3F)n2)cc1NC(=O)c1cnn2ccc(N3CC4(COC4)C3)cc12
6.00 to 7.00
2. Cc1ccc(-c2noc([C@H]3C[C@@H]3F)n2)cc1NC(=O)c1cnn2ccc(-c3cnn(CCO)c3)cc12
> 7.00
3. Cc1ccc(-c2noc([C@H]3C[C@@H]3F)n2)cc1NC(=O)c1cnc2n1CCC2
< 6.00
4. Cc1ncc(-c2noc(C3CN(C(=O)[C@H]4C[C@@H]4F)C3)n2)cc1NC(=O)c1cnn2ccc(N3CC4(C3)CC(O)(C(F)F)C4)cc12
< 6.00
5. Cc1ccc(-c2noc([C@H]3C[C@@H]3C(F)F)n2)cc1NC(=O)c1cnn2ccc(N3CC4(COC4)C3)cc12
> 7.00
6. Cc1ccc(-c2noc([C@H]3C[C@@H]3F)n2)cc1NC(=O)c1cnc(N2CC(C(=O)OC(C)(C)C)C2)s1
< 6.00
7. Cc1ccc(-c2noc([C@H]3C[C@@H]3F)n2)cc1NC(=O)c1cnc(-c2ccc3c(c2)CC(=O)N3C)o1
6.00 to 7.00
